Assay: Caspase-3/7 induction in HepG2 cells by small molecules, qHTS cell viability counter screen (AID 1346981); further: nearly all actives have a fitted effect of over 30% in size
Conditions: CellTiter-Fluor fluorescence, 17 h; series mostly up to 92.4 µM
Records with an inconclusive call do not appear. Calls of active or inactive are those of the source. The call rests on the fitted dose curve; in most records, active means well fitted cell-killing curve with a large enough effect in the repeat runs; inconclusive means weak or mixed curves, or effect the other way; inactive means flat fitted curve, though single readings scatter.
Outcomes: active, inactive

- O=C1NCN(c2ccccc2)C12CCN(CCCOc1ccc(F)cc1)CC2: active
- O=Cc1ccc(Cl)cc1Cl: inactive
- O=C1CN=C(c2ccccc2)c2cc(Cl)ccc2N1CC1CC1: inactive
- N#CCc1ccccc1: inactive
- CCOC(=O)COc1cc(-c2nn(C)c(OC(F)F)c2Cl)c(F)cc1Cl: inactive
- CN(C)c1ccc(N(C)C)cc1: inactive

Origin of values: PubChem BioAssay (Tox21)
